TESTED ON: γ-Humulene Synthase (ag5) (SEQ ID No: 24) (Abies grandis, UniProt O64405)
Construct: For further subcloning of the amplified, full-length cDNA into the pSBETa vector for high-level expression, the pGAG5 insert was amplified; made in house; host or cells: E. coli XL1-Blue/pGAG5 or E. coli BL21(DE3)/pSBAG5
Sequence (O64405 whole entry): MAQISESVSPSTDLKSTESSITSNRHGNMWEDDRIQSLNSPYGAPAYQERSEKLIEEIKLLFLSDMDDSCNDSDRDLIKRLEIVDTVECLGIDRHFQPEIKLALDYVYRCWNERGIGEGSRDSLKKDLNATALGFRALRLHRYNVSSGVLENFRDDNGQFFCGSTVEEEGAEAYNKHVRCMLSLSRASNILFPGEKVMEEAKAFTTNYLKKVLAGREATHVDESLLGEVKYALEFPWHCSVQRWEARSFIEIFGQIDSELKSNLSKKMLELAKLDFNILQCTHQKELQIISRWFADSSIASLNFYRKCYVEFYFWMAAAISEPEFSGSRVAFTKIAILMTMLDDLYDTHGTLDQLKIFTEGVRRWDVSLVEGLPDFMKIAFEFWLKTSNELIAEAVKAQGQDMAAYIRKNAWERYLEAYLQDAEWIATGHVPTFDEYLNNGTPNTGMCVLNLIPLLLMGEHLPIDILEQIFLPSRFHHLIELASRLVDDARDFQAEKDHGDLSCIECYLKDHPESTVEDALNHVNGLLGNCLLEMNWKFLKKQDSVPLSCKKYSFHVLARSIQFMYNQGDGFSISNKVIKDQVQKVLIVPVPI
ASSAY COMMENT: Product profile of recombinant γ-humulene synthase in vitro (preparative assay, GLC-MS)
Type: biochemical
CONDITION DESCRIPTION: from [1-3H]farnesyl diphosphate; total ion current chromatogram
Entries whose sesquiterpene products of γ-humulene synthase, % is below 3% take Met; entries at or above 3% take Not met.

COMPOUND: C=CC(=C)CC/C=C(\C)CCC=C(C)C
CLASS ASSIGNMENT: Met
--
COMPOUND: C=C(CCC=C(C)C)[C@@H]1CC=C(C)CC1
CLASS ASSIGNMENT: Not met
--
COMPOUND: CC1=CC[C@@H]2[C@H]3[C@H](C(C)C)CC[C@]2(C)[C@@H]13
CLASS ASSIGNMENT: Met
--
COMPOUND: CC(C)=CCC/C(C)=C1/CC=C(C)CC1
CLASS ASSIGNMENT: Met
--
COMPOUND: CC1=CC[C@@H]2[C@@H]3[C@H]1[C@@]2(C)CCCC3(C)C
CLASS ASSIGNMENT: Not met
--
COMPOUND: CC1CCC=C2CCC3C(C3(C)C)C21C (stereo not shown)
CLASS ASSIGNMENT: Met
--
COMPOUND: CC(C)=C1C/C=C(\C)CC/C=C(\C)CC1
CLASS ASSIGNMENT: Met
--
COMPOUND: C=C1[C@@H]2CC[C@H]3[C@@H]2[C@@H](C(C)C)CC[C@@]13C
CLASS ASSIGNMENT: Not met
--
COMPOUND: CC1=C[C@H]2C(=C(C)CCCC2(C)C)CC1
CLASS ASSIGNMENT: Not met
--
COMPOUND: CC(C)C1CCC2(C)C3CC4C(C13)C42C (stereo not shown)
CLASS ASSIGNMENT: Met
--
COMPOUND: CC1=C[C@H]2C(=C(C)CC[C@H]2C(C)C)CC1
CLASS ASSIGNMENT: Met
--
COMPOUND: CC1=CC[C@H]2[C@H]3[C@@H]1[C@]2(C)CC[C@H]3C(C)C
CLASS ASSIGNMENT: Met
--
COMPOUND: C=C1CCCC(C)(C)[C@H]2C=C(C)CC[C@@H]12
CLASS ASSIGNMENT: Not met
--
COMPOUND: CC1=CCCC(C)=CCCC(C)=CCC1 [1,5,9-trimethylcyclododeca-1,5,9-triene (tent. 2 isomers), 1,5,9-trimethylcyclododeca-1,5,9-triene]
CLASS ASSIGNMENT: Met
--
COMPOUND: C=C1C=CC(C)(C)CCCC(C)=CCC1
CLASS ASSIGNMENT: Not met
--
COMPOUND: C=C1CC[C@@]23[C@@H]([C@@H]12)[C@H](C(C)C)CC[C@H]3C
CLASS ASSIGNMENT: Met
--
COMPOUND: C=C1CCCC2(C)CCC(C(C)C)=CC12 (stereo not shown)
CLASS ASSIGNMENT: Not met
--
COMPOUND: C=C1CCC2C3C(C(C)C)CCC2(C)C13 (stereo not shown)
CLASS ASSIGNMENT: Met
--
COMPOUND: C=C1[C@H]2CC[C@@H]3[C@H]2C(C)(C)CCC[C@]13C
CLASS ASSIGNMENT: Not met
--
COMPOUND: CC1=C[C@H]2[C@@H](CC1)C(C)=CCCC2(C)C
CLASS ASSIGNMENT: Not met
--
COMPOUND: CC(C)=CC/C=C(/C)C1CC=C(C)CC1 (stereo not shown)
CLASS ASSIGNMENT: Met
--
COMPOUND: CC1(C)CCC[C@@]2(C)[C@@H]3CC4C([C@@H]31)C42C
CLASS ASSIGNMENT: Met
--
COMPOUND: C=C1CCC2C3C1C2(C)CCCC3(C)C (stereo not shown)
CLASS ASSIGNMENT: Met
--
COMPOUND: CC1=CC2C(CC1)C(C)=CCC2C(C)C (stereo not shown)
CLASS ASSIGNMENT: Met
--
COMPOUND: CC1=CC[C@@]23[C@@H]([C@@H]12)[C@H](C(C)C)CC[C@H]3C
CLASS ASSIGNMENT: Met
